# experimental.details: recombinant barcode read abundance after kanamycin selection (control-corrected) (log10(CPM+1)); higher = more efficient recombination; sequences stand for … in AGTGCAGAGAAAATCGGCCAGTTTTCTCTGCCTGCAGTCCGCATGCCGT…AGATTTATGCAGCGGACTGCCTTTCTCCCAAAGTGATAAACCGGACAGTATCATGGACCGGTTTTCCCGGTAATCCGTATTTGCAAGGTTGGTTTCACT; site = the 11-nt target;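 further: IS621 recombinase and bridge RNA in Escherichia coli cells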
Binning scheme for recombinant barcode read abundance (log10): lower level = under 0.2, middle level = from 0.2 up to 0.4, upper level = 0.4 and over

- polymer.sequence: "AAGTCGTCTTGGGTTCTAACCTGTTGCCT (site AAGTCGTCTAG)"
  label: "upper level"
- polymer.sequence: "GCGAGCCCTTGGGTTCTAACCTGTTGCGT (site GCTAGCCCTCC)"
  label: "lower level"
- polymer.sequence: "CGGGCCTCTTGGGTTCTAACCTGTTGCTT (site CGGGCCTCTTA)"
  label: "middle level"

Kindly identify the class of AGATTATCTTGGGTTCTAACCTGTTGCCT (site AGAATATCTAG) . middle level

Which class does GACATATCTTGGGTTCTAACCTGTTGCTT (site GACATATCTAA) fall in? middle level

Class (by measured recombinant barcode read abundance (log10)) for CGTCGCACTTGGGTTCTAACCTGTTGCCT (site CATCGCACTAG) middle level

Band of AGACGTACTTGGGTTCTAACCTGTTGCCT (site AGGCGTACTAG) ? lower level

Lab note: which band did TAGAAGACTTGGGTTCTAACCTGTTGCTC (site TAGAAGACTGA) land in? upper level

Exercise: read the entry CACCGAGCTTGGGTTCTAACCTGTTGCCG (site CACCGAGCTCG) and state which class it falls under. upper level

Categorize the following entry: TTGACATCTTGGGTTCTAACCTGTTGCCT (site TTGAGATCTAG) lower level
